Test system: Renilla
assay.notes: Renilla signal in NR2F6 agonist screening, cmpd/DMSO
Type: cell-based
experimental.context: Renilla, Table 14; 10 uM; read-out: Renilla F4, cmpd/DMSO (mean)
# fold induction at 10 µM per entry
Just the number, please, no unit attached.

Solved entries:
# compound.string, tested.system, fold induction at 10 µM
rows = [
    ("COc1ccc(-c2cn3cccc(C)c3n2)cc1", "Renilla", 1),
    ("Cc1ccc(-c2nc3ccccc3c(=O)[nH]2)cc1", "Renilla", 0.9),
    ("Cc1ccc(NC(=O)c2noc3c2CCC3)cc1C", "Renilla", 0.7),
]

Using the record for `Cc1ccn2cc(-c3ccc(F)cc3)cc2c1` , report its fold induction at 10 µM.
1

How about this molecule: `CCOC(=O)c1cnn2c(-c3ccc(Cl)cc3)ccnc12`
0.5

# iterate: `CCn1cc2c(n1)c(=O)n(Cc1ccccc1)c(=O)n2CC(=O)Nc1ccc(Br)cc1`
0.8

* * *

tested.system: NR2F6 (Homo sapiens, UniProt P10588)
Construct: expressed in transfected cells; also transient transfection
Sequence (P10588 1-404): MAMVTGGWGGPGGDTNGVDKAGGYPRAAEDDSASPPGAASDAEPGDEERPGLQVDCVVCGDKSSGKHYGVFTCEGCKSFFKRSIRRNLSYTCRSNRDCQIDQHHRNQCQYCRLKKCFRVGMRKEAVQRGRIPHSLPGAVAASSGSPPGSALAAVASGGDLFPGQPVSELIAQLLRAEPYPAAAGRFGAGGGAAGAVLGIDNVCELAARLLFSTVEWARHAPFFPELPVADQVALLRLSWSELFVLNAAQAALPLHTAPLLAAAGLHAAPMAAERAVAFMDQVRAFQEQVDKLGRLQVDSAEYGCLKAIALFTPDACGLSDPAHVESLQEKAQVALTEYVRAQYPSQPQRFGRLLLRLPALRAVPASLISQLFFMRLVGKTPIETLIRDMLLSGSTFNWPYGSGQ
assay.notes: NR2F6 agonist screening, Firefly signal cmpd/DMSO
Type: cell-based
experimental.context: 10% FBS; 10 uM
Reported Firefly, F4/pGL4 for S/B(F4) > 3 by item:
// return just the number, without any unit appended

Check out these entries, answers already filled in.
# compound.string, Firefly, F4/pGL4 for S/B(F4) > 3
measured = [
    ("CC(C)CN[C@H]1CS(=O)(=O)C[C@@H]1S(=O)(=O)c1ccc(Cl)cc1", 1.8),
    ("CC1CCN([C@H]2CS(=O)(=O)C[C@@H]2S(=O)(=O)c2cccs2)CC1", 2.7),
    ("O=S1(=O)C[C@H](NC2CCCCCC2)[C@@H](S(=O)(=O)c2ccc(Cl)cc2)C1", 1.4),
    ("O=S1(=O)C[C@H](N2CCCCC2)[C@@H](S(=O)(=O)c2cccs2)C1", 3.4),
    ("CCCCN(C)[C@H]1CS(=O)(=O)C[C@@H]1S(=O)(=O)c1ccc(Cl)cc1", 1.2),
]

I have this compound here, `C[C@@H]1C[C@H](C)CN([C@H]2CS(=O)(=O)C[C@@H]2S(=O)(=O)c2cccs2)C1` , and I need its recorded Firefly, F4/pGL4 for S/B(F4) > 3.
3.0

For `CC(C)N[C@H]1CS(=O)(=O)C[C@@H]1S(=O)(=O)c1ccc(Cl)cc1` then?
1.8

Could you do the same for `O=S1(=O)C[C@H](N2CCCC2)[C@@H](S(=O)(=O)c2ccc(Cl)cc2)C1` , please?
3.1
